Catalogue of pIC50 readings, one per entry.
- target-of-assay: CRTH2 (Homo sapiens, UniProt Q9Y5Y4)
- Sequence (Q9Y5Y4 whole entry): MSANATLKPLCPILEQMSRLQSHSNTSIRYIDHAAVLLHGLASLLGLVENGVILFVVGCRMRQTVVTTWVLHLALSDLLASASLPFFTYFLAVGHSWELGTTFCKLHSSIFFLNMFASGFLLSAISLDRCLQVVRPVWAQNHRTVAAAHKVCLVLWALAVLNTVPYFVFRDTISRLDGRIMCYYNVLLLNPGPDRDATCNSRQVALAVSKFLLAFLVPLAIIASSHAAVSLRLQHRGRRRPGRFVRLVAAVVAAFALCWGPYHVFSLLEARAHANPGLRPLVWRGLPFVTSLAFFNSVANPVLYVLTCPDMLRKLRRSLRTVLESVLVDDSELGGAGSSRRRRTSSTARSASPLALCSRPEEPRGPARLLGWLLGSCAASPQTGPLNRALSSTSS
- test-name: FRET based competitive immunoassay (cAMP) in CRTH2 expressing CHO cells
- run-conditions: CRTH2 expressing CHO cells incubated with forskolin and PGD2; Eu3+ cryptate-labeled anti-cAMP and d2-labeled cAMP
pIC50: −log10 of the molar value.
readout: pIC50

Cc1c(-c2ccc(=O)n(Cc3cc(F)c(F)cc3F)c2)c2cc(F)ccc2n1CC(=O)O [Example 271] :: 7.92
CCn1nc(-c2c(C)n(CC(=O)O)c3ccc(F)cc23)c2ccccc2c1=O [Example 121] :: 7.26
Cc1c(-c2ccc(=O)n(Cc3c(F)cccc3F)c2)c2cc(F)ccc2n1CC(=O)O [Example 268] :: 8.15
